test: In vivo pharmacokinetic evaluation in mice; parameters: species or system ICR mice; conditions: ICR, mouse, IV (6 mg/kg), plasma, read-out: AUC^1-24 h
PROPERTY_NAME: AUC
Answers without a unit are incomplete; give the number and then its unit.

Inquiry: GET /values?readout=AUC&item= Cc1cc(C2=NO[C@@](c3cc(Cl)cc(C(F)(F)F)c3)(C(F)(F)F)C2)ccc1C(=O)NCC(=O)NC1(C(F)(F)F)CC1 [Example 008]
Reply text: 56100 ng·h/mL

Inquiry: GET /values?readout=AUC&item= Cc1cc(C2=NOC(c3cc(Cl)cc(Cl)c3)(C(F)(F)F)C2)ccc1C(=O)NCC(=O)NC1CC1 (stereo not drawn) [Example 39 (Comparative Example 1), reference compound]
Reply text: 37100 ng·h/mL

Inquiry: GET /values?readout=AUC&item= Cc1cc(C2=NO[C@@](c3cc(Cl)cc(Cl)c3)(C(F)(F)F)C2)ccc1C(=O)NCC(=O)NC1(C(F)(F)F)CC1 [Example 011]
Reply text: 48900 ng·h/mL

The reported measurements were obtained from patent EP4741380A1.
